Where do the numbers come from? From ChEMBL document CHEMBL3431459.

- Target desc: Carnitine O-palmitoyltransferase 1, liver isoform (Rattus norvegicus)
- Sequence (P32198 whole entry, canonical isoform): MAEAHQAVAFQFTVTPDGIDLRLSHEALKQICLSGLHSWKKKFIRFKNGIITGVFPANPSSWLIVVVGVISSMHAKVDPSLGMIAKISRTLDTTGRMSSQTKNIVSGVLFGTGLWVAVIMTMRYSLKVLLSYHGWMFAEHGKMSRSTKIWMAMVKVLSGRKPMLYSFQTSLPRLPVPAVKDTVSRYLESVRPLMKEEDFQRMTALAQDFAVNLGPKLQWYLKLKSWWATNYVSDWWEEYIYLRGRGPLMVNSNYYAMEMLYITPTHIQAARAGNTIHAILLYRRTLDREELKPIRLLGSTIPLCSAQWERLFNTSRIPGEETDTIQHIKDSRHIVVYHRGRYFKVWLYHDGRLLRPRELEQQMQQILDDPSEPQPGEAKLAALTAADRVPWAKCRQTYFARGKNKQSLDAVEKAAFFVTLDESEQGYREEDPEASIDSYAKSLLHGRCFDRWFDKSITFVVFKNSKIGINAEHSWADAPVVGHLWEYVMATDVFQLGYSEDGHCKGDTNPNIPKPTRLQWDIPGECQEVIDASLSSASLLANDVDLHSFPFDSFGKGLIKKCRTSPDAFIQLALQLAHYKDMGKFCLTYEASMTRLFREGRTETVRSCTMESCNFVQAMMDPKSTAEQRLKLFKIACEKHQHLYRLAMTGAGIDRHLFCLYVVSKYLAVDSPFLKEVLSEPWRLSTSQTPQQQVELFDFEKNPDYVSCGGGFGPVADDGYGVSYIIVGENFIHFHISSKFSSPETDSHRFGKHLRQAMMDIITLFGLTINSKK
- Assay: SUPPLEMENTARY: Inhibition of Carnitine palmitoyltransferase 1, liver isoform
pIC50: −log10 of the molar value.
Classification field: t = pIC50 at or over 7; f = pIC50 under 7.

Record smiles: Cc1cc(C(=O)Nc2ccc(C(=O)O)cc2)cc(S(=O)(=O)Nc2cccc(C(F)(F)F)c2)c1C
Class label: f

Record smiles: N#Cc1ccc(C#C[C@H]2CCCCN2C(=O)COc2ccccc2)cc1
Class label: f

Record smiles: Cc1cc(C)cc(S(=O)(=O)c2nn(C)c3ccc(C(=O)Nc4ccc(C(=O)O)cc4)cc23)c1
Class label: t

Record smiles: O=C(COc1ccccc1)OCc1cc(-c2nc([C@H]3CCCCN3C(=O)COc3ccccc3)cs2)ccn1
Class label: f

IN: Record `CS(=O)(=O)c1ccc(-n2nnc([C@H]3CCCCN3C(=O)COc3ccccc3)n2)cc1` ; criterion: pIC50 no lower than 7. Met?
OUT: f
